Source of measurements: ChEMBL document CHEMBL4359842

# target under test: Epidermal growth factor receptor (Homo sapiens, UniProt P00533, L858R/T790M)
# Sequence (P00533 25-1210 T790M/L858R limits assumed): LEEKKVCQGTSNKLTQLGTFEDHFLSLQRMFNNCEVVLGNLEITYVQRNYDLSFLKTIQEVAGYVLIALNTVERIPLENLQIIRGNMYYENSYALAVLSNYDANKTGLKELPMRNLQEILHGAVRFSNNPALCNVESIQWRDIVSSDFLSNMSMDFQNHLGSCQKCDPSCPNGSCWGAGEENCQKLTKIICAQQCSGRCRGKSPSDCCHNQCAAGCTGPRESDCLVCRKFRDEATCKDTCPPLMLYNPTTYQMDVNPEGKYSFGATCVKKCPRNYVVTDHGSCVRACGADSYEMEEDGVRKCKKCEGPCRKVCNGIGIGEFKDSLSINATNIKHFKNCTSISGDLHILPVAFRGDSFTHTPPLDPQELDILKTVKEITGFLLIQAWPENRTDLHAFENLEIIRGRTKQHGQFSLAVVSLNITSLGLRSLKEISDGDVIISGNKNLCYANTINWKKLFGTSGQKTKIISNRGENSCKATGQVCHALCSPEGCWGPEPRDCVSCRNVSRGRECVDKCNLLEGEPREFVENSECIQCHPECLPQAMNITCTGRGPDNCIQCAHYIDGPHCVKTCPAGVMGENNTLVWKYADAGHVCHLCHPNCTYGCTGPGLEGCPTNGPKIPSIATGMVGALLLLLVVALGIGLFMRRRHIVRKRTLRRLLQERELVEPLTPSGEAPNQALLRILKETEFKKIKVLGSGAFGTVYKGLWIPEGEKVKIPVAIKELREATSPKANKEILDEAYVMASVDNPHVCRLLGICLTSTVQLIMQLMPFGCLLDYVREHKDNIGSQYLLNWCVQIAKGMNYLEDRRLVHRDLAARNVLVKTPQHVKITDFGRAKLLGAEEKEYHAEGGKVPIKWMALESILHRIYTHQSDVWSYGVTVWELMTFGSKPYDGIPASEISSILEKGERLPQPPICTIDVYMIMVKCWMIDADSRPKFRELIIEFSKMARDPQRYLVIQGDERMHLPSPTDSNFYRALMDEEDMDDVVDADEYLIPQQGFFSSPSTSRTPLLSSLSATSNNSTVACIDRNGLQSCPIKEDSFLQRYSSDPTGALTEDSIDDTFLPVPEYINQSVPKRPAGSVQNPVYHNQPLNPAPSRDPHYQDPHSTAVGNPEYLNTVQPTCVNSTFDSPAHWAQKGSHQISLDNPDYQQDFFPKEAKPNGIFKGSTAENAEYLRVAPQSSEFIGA
# method summary: Inhibition of recombinant human EGFR T790M/L858R double mutant (696 to end residues) using GGMEDIYFEFMGGKKK as substrate measured after 40 mins in presence of [gamma33P]ATP by scintillation counting analysis
endpoint name: IC50
Please report the result as a number followed by the unit.

Asked: Find the measured IC50 of "O=C1Nc2ccccc2N/C1=C\C(=O)c1cccc2ccccc12" and report it.
Given back: 370 nM

* * *

Field: IC50. Provide a value for each of the compounds that follow.
# target under test: Mitogen-activated protein kinase 10 (Homo sapiens, UniProt P53779)
# Sequence (P53779 whole entry): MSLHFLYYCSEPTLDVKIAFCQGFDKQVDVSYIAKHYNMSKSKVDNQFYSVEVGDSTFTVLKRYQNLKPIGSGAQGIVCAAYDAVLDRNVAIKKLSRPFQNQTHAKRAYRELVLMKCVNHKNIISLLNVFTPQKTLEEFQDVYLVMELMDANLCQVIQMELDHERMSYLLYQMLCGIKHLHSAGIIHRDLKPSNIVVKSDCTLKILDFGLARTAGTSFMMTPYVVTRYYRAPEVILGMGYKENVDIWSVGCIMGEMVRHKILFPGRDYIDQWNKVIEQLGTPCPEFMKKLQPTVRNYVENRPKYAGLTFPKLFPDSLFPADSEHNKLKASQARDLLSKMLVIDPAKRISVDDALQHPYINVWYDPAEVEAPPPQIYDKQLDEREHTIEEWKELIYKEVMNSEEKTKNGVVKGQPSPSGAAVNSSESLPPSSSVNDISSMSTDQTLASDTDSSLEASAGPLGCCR
# method summary: Inhibition of recombinant human full-length JNK3 using ATF2 as substrate measured after 40 mins in presence of [gamma33P]ATP by scintillation counting analysis
Answers are plain numbers, in nM.

// below: answered compounds
>>> print(df.to_string())
                                test_smiles                         target_under_test  endpoint_name  readout_number
0  Cc1ccc(/N=C2/NC(=O)/C(=C3/C(=O)Nc4ccc(I)cc43)S2)cc1Cl  Mitogen-activated protein kinase 10 (Homo sapiens, UniProt P53779)           IC50            1900
1  COc1ccc(-c2n[nH]cc2/C=N\NC(=O)c2ccccc2I)cc1OC  Mitogen-activated protein kinase 10 (Homo sapiens, UniProt P53779)           IC50            7650
2  COc1ccc(/C=C\C(=O)c2c(-c3ccccc3)c3cc(C)ccc3[nH]c2=O)cc1  Mitogen-activated protein kinase 10 (Homo sapiens, UniProt P53779)           IC50           14200
3       O=C1NC(=O)/C(=C2/C(=O)Nc3ccccc32)S1  Mitogen-activated protein kinase 10 (Homo sapiens, UniProt P53779)           IC50            6570
4  Cc1cccc(/N=C2/NC(=O)/C(=C3/C(=O)Nc4ccccc43)S2)c1C  Mitogen-activated protein kinase 10 (Homo sapiens, UniProt P53779)           IC50            1830
5  COc1cc(-c2nc3ccccn3c2/N=C/c2c[nH]nc2-c2ccccc2)ccc1O  Mitogen-activated protein kinase 10 (Homo sapiens, UniProt P53779)           IC50            4240

For each of the compounds below, note its IC50.
1. COc1ccc(S(=O)(=O)/N=C2/NC(=O)/C(=C3/C(=O)Nc4ccc(Br)cc43)S2)cc1
2. O=C1Nc2ccccc2N/C1=C\C(=O)c1ccccc1
3. O=C1N/C(=N/c2cccc3ccccc23)S/C1=C1\C(=O)Nc2ccc(Br)cc21
4. O=C1N/C(=N/c2ccccc2Cl)S/C1=C1\C(=O)Nc2ccc(F)cc21
5. O=C1Nc2ccccc2N/C1=C\C(=O)c1cccc2ccccc12

Given back:
1: 2430; 2: 2370; 3: 590; 4: 40; 5: 250
